Cited source for all entries: ChEMBL document CHEMBL4387708

System: CYP2D6
Assay: Selectivity index ratio of IC50 for CYP2D6 (unknown origin) to EC50 for growth inhibition of Trypanosoma brucei bloodstream forms
Format: toxicity
Details: read-out: Ratio IC50/EC50
recorded endpoint: selectivity ratio

INSERT INTO measurements (smiles_input, result) VALUES
  ('Nc1nc2ccc(C(=O)NCc3ccccc3)cc2s1', '> 10');

----------
Assay: AUC in BALB/c mouse at 20 mg/kg, po co-formulated with hydroxypropyl-beta-cyclodextrin by LC-MS analysis
Assay type: ADME, organism-based
Conditions: in vivo
recorded endpoint: AUC (µg·h/mL)

INSERT INTO measurements (smiles_input, recorded_endpoint, unit_abbreviation, numeric_readout) VALUES
  ('Nc1nc2ccc(C(=O)NCc3ccccc3)cc2s1', 'AUC', 'µg·h/mL', 7.93);
